system: HT29 colon; experiment: NCI tumour cell line growth inhibition, 48 h
endpoint_name: TGI

[[record]]
molecule = "COc1ccc(N2C(=O)[C@H]3[C@H]4CC(C(C)(C)C)CC[C@H]4c4c(n(C)c5ccccc45)[C@H]3C2=O)cc1 (stereo not given in full)"
endpoint_name = "TGI"
result = "> 100 µM"

[[record]]
molecule = "CCN(Cc1ccccc1)c1ccc(CO)c(Cl)c1"
endpoint_name = "TGI"
result = "36.3 µM"

[[record]]
molecule = "CC(=O)c1cccc(C)c1C(=O)O"
endpoint_name = "TGI"
result = "> 100 µM"

[[record]]
molecule = "C=C(NC(=O)C(=C)NC(=O)c1csc(C2=NC3c4csc(n4)C4NC(=O)c5csc(n5)C(C(C)(O)C(C)O)NC(=O)C5CSC(=N5)C(=CC)NC(=O)C(C(C)O)NC(=O)c5csc(n5)C3(CC2)NC(=O)C(C)NC(=O)C(=C)NC(=O)C(C)NC(=O)C(C(C)CC)NC2C=Cc3c(C(C)O)cc(nc3C2O)C(=O)OC4C)n1)C(N)=O (stereo not given)"
endpoint_name = "TGI"
result = "> 100 µM"

[[record]]
molecule = "CC(NO)/C(=N/O)c1ccco1 (stereo not given)"
endpoint_name = "TGI"
result = "> 10 µM"

[[record]]
molecule = "CCOC(=O)/C(=C\\c1ccc(N(CCC#N)CCC#N)cc1)NC(=O)c1cc([N+](=O)[O-])ccc1Cl"
endpoint_name = "TGI"
result = "> 100 µM"

[[record]]
molecule = "CCO/C=N\\c1c(C#N)c(-c2ccc(Cl)cc2)cn1-c1ccc(C)cc1"
endpoint_name = "TGI"
result = "> 100 µM"

[[record]]
molecule = "COc1ccc(/C(COc2ccc3c(=O)c(-c4ccccc4)coc3c2)=N\\O)cc1"
endpoint_name = "TGI"
result = "> 44.5 µM"

[[record]]
molecule = "CCC(C(=O)C(=O)C(CC)P1(=O)OC(C)(C)CN1C(C)(C)C)P1(=O)OC(C)(C)CN1C(C)(C)C (stereo not given)"
endpoint_name = "TGI"
result = "> 100 µM"

[[record]]
molecule = "COc1cc(-c2ccc(-c3ccc(C(=N)N)nc3)s2)cc(OC)c1OC"
endpoint_name = "TGI"
result = "5.68 µM"


---

system: CAKI-1 renal; test: NCI tumour cell line growth inhibition, 48 h
endpoint_name: TGI (µM)

[[record]]
compound = "c1ccc2c(NCCCCCCNc3c4ccccc4nc4ccccc34)c3ccccc3nc2c1"
endpoint_name = "TGI"
limit_operator = "="
numeric_value = 7.87

[[record]]
compound = "CCOC(=O)N1c2c(ccn2C)-c2ccn(C)c2N1C(=O)OCC"
endpoint_name = "TGI"
limit_operator = "="
numeric_value = 44.8

[[record]]
compound = "O=S(=O)(NCCCNc1nccc(-c2c(-c3ccc(F)c(O)c3)nc3sccn23)n1)c1ccc(F)cc1"
endpoint_name = "TGI"
limit_operator = ">"
numeric_value = 100

[[record]]
compound = "C=C1C(=O)OC2C1CCC(C)C1C=CC(=O)C12C (stereo unspecified)"
endpoint_name = "TGI"
limit_operator = "="
numeric_value = 6.75

[[record]]
compound = "CC(NO)/C(=N/O)c1ccco1 (stereo unspecified)"
endpoint_name = "TGI"
limit_operator = ">"
numeric_value = 10

[[record]]
compound = "NC[C@H]1Nc2ccccc2[C@@H](O)C1O (stereo partly specified)"
endpoint_name = "TGI"
limit_operator = ">"
numeric_value = 100


---

Entries and their TGI
system: HL-60(TB) leukemia; test: NCI tumour cell line growth inhibition, 48 h
endpoint_name: TGI

[[record]]
compound = "O=C(N/N=C/c1c(-c2ccccc2)no[n+]1[O-])N1CCOCC1"
assay_target = "HL-60(TB) leukemia"
endpoint_name = "TGI"
result = "> 100 µM"

[[record]]
compound = "CCOC(=O)N1c2c(ccn2C)-c2ccn(C)c2N1C(=O)OCC"
assay_target = "HL-60(TB) leukemia"
endpoint_name = "TGI"
result = "26.7 µM"

[[record]]
compound = "C=CC1CCC[N+]1(CC(=O)OCC)Cc1ccccc1 (stereo not given)"
assay_target = "HL-60(TB) leukemia"
endpoint_name = "TGI"
result = "> 100 µM"

[[record]]
compound = "C=C(C)[C@@H]1CC[C@]2(C(=O)O)CC[C@]3(C)[C@H](CC[C@@H]4[C@@]5(C)CCC(NC(=O)c6cccc(OC(C)=O)c6OC(C)=O)C(C)(C)[C@@H]5CC[C@]43C)[C@@H]12 (stereo not given in full)"
assay_target = "HL-60(TB) leukemia"
endpoint_name = "TGI"
result = "4.52 µM"

[[record]]
compound = "CCCN(CCC)c1ccc(/C=C/c2ccc3cc(OCC)ccc3n2)cc1"
assay_target = "HL-60(TB) leukemia"
endpoint_name = "TGI"
result = "> 100 µM"

[[record]]
compound = "COc1ccc(-c2oc(=O)ccc2-c2cc(OC)c(OC)c(OC)c2)cc1O"
assay_target = "HL-60(TB) leukemia"
endpoint_name = "TGI"
result = "2.03 µM"

[[record]]
compound = "O=c1cc(N2CCN(CCCCCOc3cc(O)c4c(=O)cc(-c5ccccc5)oc4c3)CC2)c2ccccc2o1"
assay_target = "HL-60(TB) leukemia"
endpoint_name = "TGI"
result = "> 100 µM"

[[record]]
compound = "Cc1ccccc1NC(=O)c1c(C)oc2c1C(=O)c1ccccc1C2=O"
assay_target = "HL-60(TB) leukemia"
endpoint_name = "TGI"
result = "56.9 µM"

[[record]]
compound = "CSC1=Nc2ccccc2-c2nc3ccccc3cc2C1"
assay_target = "HL-60(TB) leukemia"
endpoint_name = "TGI"
result = "> 100 µM"

[[record]]
compound = "CCn1c(SCC(=O)N/N=C/c2ccccc2)nc2ccccc2c1=O"
assay_target = "HL-60(TB) leukemia"
endpoint_name = "TGI"
result = "> 100 µM"

[[record]]
compound = "Cn1nc(-c2ccccc2)c(C(=O)/C=C/c2ccc(Cl)cc2)c(N2CCCCC2)c1=O"
assay_target = "HL-60(TB) leukemia"
endpoint_name = "TGI"
result = "4 µM"

[[record]]
compound = "CCCCCCCCCCCCN1[C@H]2CCC[C@H]2C(O)[C@@H]2CCC[C@@H]21 (stereo not given in full)"
assay_target = "HL-60(TB) leukemia"
endpoint_name = "TGI"
result = "> 100 µM"

[[record]]
compound = "CC(=O)O/C=C1/C[C@H]2[C@@H]3CCC4CC(C(C)=O)CC[C@]4(C)[C@H]3CC[C@]2(C)C1=O (stereo not given in full)"
assay_target = "HL-60(TB) leukemia"
endpoint_name = "TGI"
result = "37.2 µM"

[[record]]
compound = "O=C(Nc1ccc(Cl)cc1Cl)C1C(=O)C(=O)N(c2ccc(Cl)cc2Cl)C1=O (stereo not given)"
assay_target = "HL-60(TB) leukemia"
endpoint_name = "TGI"
result = "> 100 µM"

[[record]]
compound = "c1ccc(C2=NCCN2)c(C2=NCCN2)c1"
assay_target = "HL-60(TB) leukemia"
endpoint_name = "TGI"
result = "> 100 µM"

[[record]]
compound = "O=C(O)Cc1cc(=O)[nH]c2c1/C(=N/O)CCC2"
assay_target = "HL-60(TB) leukemia"
endpoint_name = "TGI"
result = "> 100 µM"

[[record]]
compound = "CC1(C)CC2=C(Sc3ccccc3N2)C(=O)C1C(=O)C(=O)Nc1cccc([N+](=O)[O-])c1 (stereo not given)"
assay_target = "HL-60(TB) leukemia"
endpoint_name = "TGI"
result = "> 100 µM"

[[record]]
compound = "Nc1ccc2c(=O)cc(-c3cccs3)[nH]c2n1"
assay_target = "HL-60(TB) leukemia"
endpoint_name = "TGI"
result = "0.671 µM"

[[record]]
compound = "Cc1cccc(C)c1NC(=O)C(=O)CC(=O)/C=C/c1ccccc1"
assay_target = "HL-60(TB) leukemia"
endpoint_name = "TGI"
result = "> 100 µM"

[[record]]
compound = "O=C1/C(=C/c2ccc(OC(=O)c3ccccc3)cc2)CCC/C1=C\\c1ccc(OC(=O)c2ccccc2)cc1"
assay_target = "HL-60(TB) leukemia"
endpoint_name = "TGI"
result = "> 100 µM"

[[record]]
compound = "CCC(C(=O)C(=O)C(CC)P1(=O)OC(C)(C)CN1C(C)(C)C)P1(=O)OC(C)(C)CN1C(C)(C)C (stereo not given)"
assay_target = "HL-60(TB) leukemia"
endpoint_name = "TGI"
result = "> 100 µM"

[[record]]
compound = "C=CCN1C(=O)/C(=C\\c2cc(C(C)(C)C)c(O)c(C(C)(C)C)c2)NC1=S"
assay_target = "HL-60(TB) leukemia"
endpoint_name = "TGI"
result = "25.1 µM"

[[record]]
compound = "COc1c(OC(C)C)c(OC(C)C)c2oc(=O)n3c2c1C(c1ccccc1-n1c(C)ccc1C)C=C3 (stereo not given)"
assay_target = "HL-60(TB) leukemia"
endpoint_name = "TGI"
result = "> 100 µM"

[[record]]
compound = "COc1ccc(/C(COc2ccc3c(=O)c(-c4ccccc4)coc3c2)=N\\O)cc1"
assay_target = "HL-60(TB) leukemia"
endpoint_name = "TGI"
result = "2.2 µM"

[[record]]
compound = "CCOC(=O)NC1C2CC(=O)OC(O2)C1OC(C)=O (stereo not given)"
assay_target = "HL-60(TB) leukemia"
endpoint_name = "TGI"
result = "> 100 µM"

[[record]]
compound = "CCN(CC)CCC(=O)c1ccc(C)cc1"
assay_target = "HL-60(TB) leukemia"
endpoint_name = "TGI"
result = "> 100 µM"

[[record]]
compound = "O=C1NC(=O)C(c2ccccc2Cl)=C1Nc1cc(Cl)c(O)c(Cl)c1"
assay_target = "HL-60(TB) leukemia"
endpoint_name = "TGI"
result = "> 25 µM"

[[record]]
compound = "N#Cc1ccc2c(c1)C(=O)c1c-2n(CCCCl)c(=O)c2cc([N+](=O)[O-])ccc12"
assay_target = "HL-60(TB) leukemia"
endpoint_name = "TGI"
result = "29.9 µM"

[[record]]
compound = "Cc1ccc(NC2=C(Cl)C(=O)N(Cc3ccc(Cl)cc3)C2=O)cc1O"
assay_target = "HL-60(TB) leukemia"
endpoint_name = "TGI"
result = "> 100 µM"

[[record]]
compound = "COc1ccccc1C(O)(c1ccccc1)C(O)(c1ccccc1)c1ccccc1OC (stereo not given)"
assay_target = "HL-60(TB) leukemia"
endpoint_name = "TGI"
result = "> 100 µM"

[[record]]
compound = "CC(C)OP(=O)(OC(C)C)c1nc(-c2ccccc2)n(-c2ccc([N+](=O)[O-])cc2)n1"
assay_target = "HL-60(TB) leukemia"
endpoint_name = "TGI"
result = "> 100 µM"

[[record]]
compound = "CO[C@@H]1C[C@H]2[C@@H]3CC[C@H]([C@@H](C)CO)[C@@]3(C)CC[C@@H]2[C@@]2(C)CC[C@H]3C[C@]312"
assay_target = "HL-60(TB) leukemia"
endpoint_name = "TGI"
result = "76.3 µM"

[[record]]
compound = "N#CC(C#N)=C/C=C(\\Sc1c(Cl)c(Cl)nc(Cl)c1Cl)c1ccc(Cl)cc1"
assay_target = "HL-60(TB) leukemia"
endpoint_name = "TGI"
result = "> 100 µM"

[[record]]
compound = "c1ccc(N=C(Nc2ccccc2)N2CCCC2)cc1"
assay_target = "HL-60(TB) leukemia"
endpoint_name = "TGI"
result = "> 100 µM"

[[record]]
compound = "Cc1c(S(=O)(=O)O)ccc(N=Nc2c(O)c(C(=O)O)cc3ccccc23)c1Cl"
assay_target = "HL-60(TB) leukemia"
endpoint_name = "TGI"
result = "> 100 µM"

[[record]]
compound = "C/C(=N\\Nc1cc(C)c2ccccc2n1)c1ccccn1"
assay_target = "HL-60(TB) leukemia"
endpoint_name = "TGI"
result = "0.155 µM"

[[record]]
compound = "COc1cc(/C=C2\\N=C(c3ccccc3)N(c3nc4cc(C)c(C)cc4s3)C2=O)ccc1O"
assay_target = "HL-60(TB) leukemia"
endpoint_name = "TGI"
result = "43.9 µM"

[[record]]
compound = "COc1cc(OC)c(SSCCCCS(=O)O)c(OC)c1"
assay_target = "HL-60(TB) leukemia"
endpoint_name = "TGI"
result = "24.8 µM"

[[record]]
compound = "COc1ccc2nccc(SCC(=O)O)c2c1"
assay_target = "HL-60(TB) leukemia"
endpoint_name = "TGI"
result = "> 100 µM"

[[record]]
compound = "COc1ccc(NC(=O)CC/C(CC(=O)C(C)(C)C)=N\\NC(=O)C(=O)NN)cc1"
assay_target = "HL-60(TB) leukemia"
endpoint_name = "TGI"
result = "> 100 µM"

